- assay-info: HIF-2a reporter inhibitors, primary screen, luminescence, 786-0 RCC cells (AID 624352)
- stated-conditions: 786-0 RCC cells HIF-2a reporter, luciferase luminescence, overnight; at 18.8 µM; hits give high values
Hit rate of the full screen: of about 360,000 compounds, about 2,600 (0.72%) were called active. What follows is part of a selection rich in actives, with near analogues and random picks from the rest.
quantity-measured: inhibition (%)
The figure you give is taken to be in %; do not add the unit.

molecule	quantity-measured	observed
Cc1ccc(OCC(=O)NC(C)c2ccccc2)c([N+](=O)[O-])n1 (stereo not drawn)	inhibition	17.9

QUERY: Give the reported value of inhibition for this record: CCc1ccc(CNC(=O)C2CCCN(c3nc4ccccc4o3)C2)cc1 (stereo not drawn)
RESULT: 12.9

QUERY: Give the reported value of inhibition for this record: COC(=O)c1cc(C(=O)NC(C)C2CC3CCC2C3)cc([N+](=O)[O-])c1 (stereo not drawn)
RESULT: 18.1

---

- assay-info: HIF-2a reporter inhibitors, primary screen, luminescence, 786-0 RCC cells (AID 624352)
- stated-conditions: 786-0 RCC cells HIF-2a reporter, luciferase luminescence, overnight; at 18.8 µM
Out of some 360,000 compounds screened, about 2,600 (0.72%) were called active.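 Rule for the calls: active = inhibition of the luminescence signal of 40% or more relative to plate controls, in a single-dose primary screen at 18.75 µM; inactive = the rest.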 For the sample, actives were picked, then their nearest neighbours and some compounds at random.
Use one of these outcomes when replying: T for active, F for inactive

compound	class-label
COc1ccc(-c2oc3ncn(Cc4ccco4)c(=N)c3c2-c2ccc(OC)cc2)cc1	F

QUERY: Fill in: this test's call for O=C(Nc1ccccc1)c1nnsc1S(=O)(=O)c1ccc(Cl)cc1 is ___
RESULT: T

QUERY: Fill in: this test's call for NC[C@H](Cc1ccccc1)NCCc1cc(C(F)(F)F)cc(C(F)(F)F)c1 is ___
RESULT: F

QUERY: Fill in: this test's call for NS(=O)(=O)c1cccc(NC(=O)COC(=O)c2cc([N+](=O)[O-])ccc2N2CCCC2)c1 is ___
RESULT: F

---

- assay-info: HIF-2a reporter inhibitors, primary screen, luminescence, 786-0 RCC cells (AID 624352)
- stated-conditions: 786-0 RCC cells HIF-2a reporter, luciferase luminescence, overnight; at 18.8 µM
In all, about 360,000 compounds went through this assay and about 2,600 (0.72%) were called active.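 How the source made its calls: active means inhibition of the luminescence signal of 40% or more relative to plate controls, in a single-dose primary screen at 18.75 µM; inactive means the rest.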 Only a selection was taken, and actives are over-represented in it overall.
Use one of these outcomes when replying: active, inactive

A selection of reference data follows.
molecule	class-label
O=S(=O)([N-]c1nc2ccccc2nc1-[n+]1ccc(Cc2ccccc2)cc1)c1ccc(Br)s1	active
Cc1ccccc1C(CC(=O)c1cccs1)C(C#N)C#N (stereo not given)	active
CN(CCC(=O)Nc1cc(S(=O)(=O)N(C)C)ccc1Cl)CC(=O)Nc1ccc(F)cc1	inactive
Cc1cc(NC(=O)COc2ccccc2C#N)no1	inactive
O=C(O)CC(SCC(=O)Nc1ccc(Br)cc1)C(=O)O (stereo not given)	inactive

QUERY: Fill in: this test's call for CCCc1nc2c([nH]1)C(c1cccnc1)C(C#N)=C(N)O2 (stereo not given) is ___
RESULT: inactive

QUERY: Fill in: this test's call for CC(C)C(=O)NC(NC(=S)NC1CCS(=O)(=O)C1)C(Cl)(Cl)Cl (stereo not given) is ___
RESULT: inactive

QUERY: Fill in: this test's call for Cc1ccc(Cl)c(OCC(=O)NN2CCN(C)CC2)c1 is ___
RESULT: inactive

QUERY: Fill in: this test's call for O=C1CN(C(=O)c2cc(F)cc(F)c2)c2ccccc2N1 is ___
RESULT: inactive

QUERY: Fill in: this test's call for Cc1cccc(CS(=O)(=O)c2ncc(Cl)c(C(=O)Nc3ccc(F)cc3)n2)c1 is ___
RESULT: active

QUERY: Fill in: this test's call for CC=CCn1c(SCCCc2ccccc2)nc2c1c(=O)[nH]c(=O)n2C is ___
RESULT: inactive

QUERY: Fill in: this test's call for C=CCC[C@@H](Cc1ccc(F)cc1)C(=O)O[C@H](CNC(=O)[C@H](CC=C)CC(=O)N(CCO)Cc1ccccc1)c1ccccc1 is ___
RESULT: inactive

QUERY: Fill in: this test's call for O=C1NC(Nc2nc3ccccc3s2)(C(F)(F)F)C(=O)N1C1CCCCC1 (stereo not given) is ___
RESULT: inactive

QUERY: Fill in: this test's call for O=c1cc(C(F)(F)F)[nH]c(=O)n1C1CCCCC1 is ___
RESULT: inactive

QUERY: Fill in: this test's call for COc1ccc(CNC(=O)COC(=O)c2sccc2C)cc1OC is ___
RESULT: inactive

---

- assay-info: HIF-2a reporter inhibitors, primary screen, luminescence, 786-0 RCC cells (AID 624352)
- stated-conditions: 786-0 RCC cells HIF-2a reporter, luciferase luminescence, overnight; at 18.8 µM; hits give high values
Out of some 360,000 compounds screened, about 2,600 (0.72%) were called active. The sample as a whole holds a higher share of actives than the screen did.
Is inhibition at least 10%? Then Y. If not, N.

A selection of reference data follows.
compound	class-label
CC(C)(C)CC(=O)Nc1nc(C(N)Cc2ccc(C(F)(F)F)cc2)cs1 (centres undefined)	Y
Cc1[nH]c2ccccc2c1C(=O)c1cc([C@H](NC(=O)OC(C)(C)C)C(C)C)sc1N	N
CC1(C)OC(=O)C2=C(C[C@@H](C3CCCC3)O[C@@H]2c2ccc(Cl)cc2)O1	N
Cc1ccc2nc(-c3ccc(Br)cc3)cn2c1	Y

QUERY: Item Cc1ccc2[nH]c(C(=O)O)c(NC(=O)c3ccccc3[N+](=O)[O-])c2c1 with inhibition of 10% or above?
RESULT: Y

QUERY: Item CN(C)CCNC(=O)c1cccc(-c2cnc3c(NC=O)cc(-c4cccc(C(F)(F)F)c4)cn23)c1 with inhibition of 10% or above?
RESULT: Y

QUERY: Item CCc1cc(CNC(=O)CC2C(=O)NCCN2Cc2ccccc2C(F)(F)F)on1 (centres undefined) with inhibition of 10% or above?
RESULT: N

QUERY: Item COCc1cc(=O)n2[nH]c(C)c(-c3ccccc3)c2n1 with inhibition of 10% or above?
RESULT: Y

QUERY: Item CC(C)(C)c1cc(C(=O)N/N=C/c2ccc([N+](=O)[O-])s2)n[nH]1 with inhibition of 10% or above?
RESULT: Y

---

- assay-info: HIF-2a reporter inhibitors, primary screen, luminescence, 786-0 RCC cells (AID 624352)
- stated-conditions: 786-0 RCC cells HIF-2a reporter, luciferase luminescence, overnight; at 18.8 µM
The whole screen tested about 360,000 compounds, of which about 2,600 (0.72%) were called active.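 How the source made its calls: active means inhibition of the luminescence signal of 40% or more relative to plate controls, in a single-dose primary screen at 18.75 µM; inactive means the rest.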 The entries come from a sample that favours actives as a whole.
Use one of these outcomes when replying: y = active, n = inactive

A selection of reference data follows.
compound	class-label
COc1ccc(C(CNC(=O)c2ccc(S(=O)(=O)Nc3ccccc3F)cc2)N(C)C)cc1 (stereo unspecified)	n
CCOc1ccccc1NC(=O)C1CCCN(S(=O)(=O)c2ccccc2)C1 (stereo unspecified)	n
N#Cc1cccc(NC(=O)COC(=O)c2ccccc2C(=O)c2ccc(Cl)c([N+](=O)[O-])c2)c1	y

QUERY: Fill in: this test's call for COCCNc1ncnc2c1ncn2[C@H]1CN(Cc2ccc(OC)cc2)C[C@@H](CO)O1 is ___
RESULT: n

QUERY: Fill in: this test's call for OCCCNc1nccc(-c2cc(Nc3cccc(Cl)c3)ncn2)n1 is ___
RESULT: n

QUERY: Fill in: this test's call for CC[C@]1(c2ccccc2OC)C(=O)N(C(=O)OC)N1C(=O)OC is ___
RESULT: n

QUERY: Fill in: this test's call for CN1CCN(CCCNC(=O)c2ccc(/C=C3\Oc4ccccc4N(Cc4ccc(Cl)cc4)C3=O)cc2)CC1 is ___
RESULT: y

---

- assay-info: HIF-2a reporter inhibitors, primary screen, luminescence, 786-0 RCC cells (AID 624352)
- stated-conditions: 786-0 RCC cells HIF-2a reporter, luciferase luminescence, overnight; at 18.8 µM; hits give high values
Hit rate of the full screen: of about 360,000 compounds, about 2,600 (0.72%) were called active. The list comes from a sample in which actives are over-represented; it also holds close analogues and randomly drawn compounds.
Reported inhibition values follow for various compounds
The figure you give is taken to be in %; do not add the unit.

Example results:
compound	unit-string	inhibition
CC(C)(C)C1CCC(C(=O)Nc2cccnc2)CC1 (centres undefined)	%	10
Cc1ccc(S(=O)(=O)N(C)C)cc1NC(=O)COC(=O)C1COc2ccccc2O1 (centres undefined)	%	3.99
CN(C)/C=C(/C(=O)c1ccccc1)S(=O)(=O)c1ccc(Cl)cc1	%	-9.32
CC(C)n1cnc2c(Nc3cccc(Cl)c3)nc(N(CCO)CCCO)nc21	%	51.3
CCOCCc1c(O)nc(SCC(=O)NCc2ccco2)[nH]c1=O	%	11

QUERY: Give the reported value of inhibition for this record: O=C(CN1CCN(Cc2ccccc2)CC1)Nc1ccc(F)c(F)c1
RESULT: -1.13

QUERY: Give the reported value of inhibition for this record: Cc1cc(C)c(SCCc2ccncc2)c(C)c1
RESULT: 10

QUERY: Give the reported value of inhibition for this record: Cc1ccc(CNC(=O)COc2ccc(S(=O)(=O)NC(C)C)cc2)cc1
RESULT: -0.52

QUERY: Give the reported value of inhibition for this record: CCn1c(/C=C/c2ccc([N+](=O)[O-])o2)nc2ccccc2c1=O
RESULT: 56.6
